Measured values drawn from PubChem BioAssay (NCI) for this set.

# Tested on: MOLT-4 leukemia
# Measurement Description: NCI tumour cell line growth inhibition, 48 h
Where a SMILES comes first, the peptide text is derived from it.
Measure Name: TGI

// worked examples, TGI included
INPUT: Tell me its TGI given Cc1nn2c(C(=O)N/N=C/c3ccc([N+](=O)[O-])cc3)c(C)nc2s1 as the entry.
OUTPUT: > 100 µM

INPUT: Supply reported TGI belonging to this compound: Clc1ccc(-c2ccc(-c3nnc(COc4ccc(OCc5nnc(-c6ccc(-c7ccc(Cl)cc7Cl)o6)o5)c(Cl)c4)o3)o2)c(Cl)c1
OUTPUT: 64.2 µM

INPUT: // fetch TGI given entry CC(C)CC(NC(=O)C(Cc1ccccc1)NC(=O)C(Cc1c[nH]c2ccccc12)NC(=O)CNC(=O)C(N)Cc1ccc(O)cc1)C(=O)O (stereo not given) (H-YGWFL-OH; configuration not given here)
OUTPUT: > 100 µM

INPUT: Specify measured TGI for C=C(C)C(O)C(O)C[C@@H](C)C1CC[C@]23C[C@]12CCC1[C@@]2(C)CCC(OC(C)=O)C(C)(C)C2CC(OC2OC(CO)C(O)C(O)C2O)[C@]13C (stereo not given in full) .
OUTPUT: 38.3 µM

INPUT: Provide TGI value for the following compound: CCCNC(=O)c1ccc(Cl)cc1Cl
OUTPUT: > 100 µM

INPUT: Supply measured TGI of O=C1C(=O)c2ccccc2C(O)=C1CCCc1ccc(C2CCCCCC2)cc1 in your reply.
OUTPUT: > 32.1 µM

INPUT: For the compound c1cncc(O[Si](Oc2cccnc2)(Oc2cccnc2)Oc2cccnc2)c1 , give its reported TGI.
OUTPUT: > 100 µM

INPUT: Answer with the recorded TGI of O=C1Nc2ccccc2/C1=C\c1nc(C2CCN(S(=O)(=O)c3ccc(F)cc3)CC2)n2ccccc12 only.
OUTPUT: > 100 µM

I need TGI for every entry listed below, if you could help.
1. C/C(=N\NC(=S)N1CCCCCCCCCCCC1)c1ccccn1
2. CCCCN(CCCC)CCC(O)c1cc2c(Cl)cc(Cl)cc2c2cc(C(F)(F)F)ccc12 (stereo not given)
3. CCc1cc2ncc(CN3CCN(c4ccc(C(=O)NC)nc4)CC3)cc2[nH]c1=O
4. COc1ccc(/C(Cl)=C(\c2ccc(OCCN(C)C)cc2)c2ccc(OC(=O)C(C)(C)C)cc2)cc1
5. CN1C=Cc2nccc3cc4c(c1c23)OCO4
6. CSc1nc(NC2OC(COC(C)=O)C(OC(C)=O)C(OC(C)=O)C2OC(C)=O)c(-c2csc(N)n2)c(=O)n1C (stereo not given)
7. CCCCN[C@H]1C2C3CC4C5CC(C42)C1(C)C53 (stereo not given in full)

OUTPUT:
1.07 µM
29.3 µM
> 100 µM
14.7 µM
> 93 µM
> 100 µM
> 100 µM
